experiment: drug combination growth inhibition, ovarian cancer – cell-based, oncology-focused library, rucaparib conditional, profiling panel (AID 1508598); details: patient-derived ovarian cancer cells, CellTiter-Glo viability, 144 h; at 0.00488 µM; OCI-C5x cells; with rucaparib 10 µM; stronger effect = lower value; 100% = cells with rucaparib alone
# reported viability; entries follow
Give the number; % is assumed, so skip it.

The examples below pair each entry with its known result.
                                   compound  observed_value
0  CN(NC(=O)CC(=O)NN(C)C(=S)c1ccccc1)C(=S)c1ccccc1             143
1  CC(C)(C)c1cnc(CSc2cnc(NC(=O)C3CCNCC3)s2)o1             100
2  Nc1ccc(-c2ccc3ncc4ccc(=O)n(-c5cccc(C(F)(F)F)c5)c4c3c2)cn1             118
3  CN1CCN(CCOc2cc(OC3CCOCC3)c3c(Nc4c(Cl)ccc5c4OCO5)ncnc3c2)CC1            97.5
4  CN1CCN(c2ccc3nc(-c4c(N)c5c(F)cccc5[nH]c4=O)[nH]c3c2)CC1             121

# viability lookup, item `CS(=O)(=O)N1CCN(Cc2cc3nc(-c4cccc5[nH]ncc45)nc(N4CCOCC4)c3s2)CC1`
109

What do we get for `Cc1cccc(Nc2nc(-c3ccncc3)cs2)c1` ?
114

Same read-out for `Cn1cnc2c(F)c(Nc3ccc(Br)cc3Cl)c(C(=O)NOCCO)cc21` ?
101

Also CC[C@@H]1C(=O)N(C)c2cnc(Nc3ccc(C(=O)NC4CCC(N5CCN(CC6CC6)CC5)CC4)cc3OC)nc2N1C(C)C (stereo not given in full) ?
89.2

`CC[C@@H]1C(=O)N(C)c2cnc(Nc3ccc(C(=O)NC4CCN(C)CC4)cc3OC)nc2N1C1CCCC1` , same question.
51.4

---

experiment: viability loss in pontine glioma line – cell-based, JHH-DIPG-1, MIPE4.0, CellTiter-Glo, qHTS, dose response (AID 1347062); conditions: JHH-DIPG-1 viability, CellTiter-Glo ATP luminescence;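 for AC50: cells exposed to compound for two days before readout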
Inconclusive results are not listed. Active and inactive are the calls of the source. Cut-off not given; nearly all actives show AC50 up to about 27 µM.
Outcomes you can answer with include only these: 1 (yes) for active, 0 (no) for inactive

Record excerpt, results attached:
Molecule	Category
CCNC(=O)CCC/C=C\C[C@@H]1[C@@H](/C=C/C(O)CCc2ccccc2)[C@@H](O)C[C@@H]1O (stereo partly drawn)	0 (no)
O=C(NCCS(=O)(=O)c1ccc(C(F)(F)F)cn1)c1ccc(Cl)cc1	0 (no)
O=C(CN1C(=O)C2(CCCC2)NC[C@H]1c1cc(F)cc(F)c1)Nc1ccc2c(c1)C[C@@]1(C2)C(=O)Nc2ncccc21	0 (no)
CO/N=C(/C(=O)N[C@@H]1C(=O)N2C(C(=O)O)=C(Cn3ccc(=N)n3CCO)CS[C@H]12)c1csc(N)n1	0 (no)
NC[C@@H]1O[C@H](O[C@H]2[C@@H](O)[C@H](O[C@@H]3[C@@H](O)[C@H](N)C[C@H](N)[C@H]3O[C@H]3O[C@H](CN)[C@@H](O)[C@H](O)[C@H]3N)O[C@@H]2CO)[C@H](N)[C@@H](O)[C@@H]1O	0 (no)

What call does the record list for `Nc1n[nH]c2nnc(-c3c(-c4ccccc4)nn4ccccc34)cc12` ?
1 (yes)

How about `C/C(=C\C(=O)Nc1ccccc1C(=O)O)c1ccc2ccccc2c1` ?
0 (no)

Also `NC[C@H]1O[C@H](O[C@@H]2[C@H](O)[C@@H](O[C@H]3O[C@H](CO)[C@@H](O)[C@H](N)[C@H]3O)[C@H](N)C[C@@H]2N)[C@H](O)[C@@H](O)[C@@H]1O` , if possible.
0 (no)

---

test: drug combination growth inhibition, ovarian cancer – cell-based, oncology-focused library, rucaparib conditional, profiling panel (AID 1508598); settings: patient-derived ovarian cancer cells, CellTiter-Glo viability, 144 h; at 0.0781 µM; OCI-C5x cells; with rucaparib 10 µM; 100% = cells with rucaparib alone
Active and inactive are the calls of the source.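 Rule for the calls: active = normalized viability below 100% at a tested concentration; inactive = the rest.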
Give one outcome, nothing more. List: active, inactive

Per the records of this test, what outcome belongs to `CN(C)N=Nc1nc[nH]c1C(N)=O` ?
inactive

---

test: growth inhibition of DIPG cells – cell-based, MIPE5.0 library, qHTS (AID 1347068); conditions: SU-DIPG-XXV viability;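 for IC50: cells exposed to compound for 48 hours before viability readout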
Records with an inconclusive call do not appear. Activity calls are given as the source filed them. Cut-off not given; nearly all actives show IC50 up to about 30 µM.
Can you answer with just one of these options? 1.0 = active, 0.0 = inactive

The following compounds have reported results that may help.
In [3]: df
Out[3]:
                                   compound  category
0  Cn1cc(-c2ccc3nnc(C(F)(F)c4ccc5ncccc5c4)n3n2)cn1       0.0
1  C[C@H](NC(=O)C(=O)Nc1ccccc1C(C)(C)C)C(=O)N[C@@H](CC(=O)O)C(=O)COc1c(F)c(F)cc(F)c1F       0.0
2  COc1ccc2c(c1)c(C1=C(c3c[nH]c4ccccc34)C(=O)NC1=O)cn2CCCN(C)C       1.0
3  CC(C)N(C[C@H]1O[C@@H](n2cnc3c(N)ncnc32)[C@H](O)[C@@H]1O)C1CC(CCc2nc3ccc(C(C)(C)C)cc3[nH]2)C1 (stereo partly drawn)       0.0

Just curious, what result did `CNC(=O)CN1CCC(Oc2cc3c(Nc4cccc(Cl)c4F)ncnc3cc2OC)CC1` get here?
0.0

---

experiment: viability loss in pontine glioma line – cell-based, SU-DIPG-XVII, MIPE5.0, CellTiter-Glo, qHTS, dose response (AID 1347060); details: CellTiter-Glo ATP luminescence;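 for AC50: cells exposed to compound for 48 hours before viability readout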
Results filed as inconclusive are left out. The source made the active and inactive calls. No cut-off is given here; in the data, nearly all actives have AC50 up to about 26 µM.
// one of active, inactive, no free text

// below: answered compounds
Compound	Category
O=C(O)c1cnn(-c2nc3cc(OC(F)(F)F)c(Cl)cc3[nH]2)c1	inactive
NS(=O)(=O)c1cccc2c1C(=O)c1cccc(O)c1C2=O	active
CN(C)c1cccc(-c2c3c(=O)n(-c4ccccc4Cl)[nH]c3cc(=O)n2C)c1	inactive
CC(C)S(=O)(=O)c1ccc2nccc(Nc3ccc4scnc4c3)c2c1	active

Please let me know the test result on file for `Cc1cn(-c2cc(NC(=O)c3ccc(C)c(Nc4nccc(-c5cccnc5)n4)c3)cc(C(F)(F)F)c2)cn1` .
active

Same for `O=C(NCCS(=O)(=O)c1ccc(C(F)(F)F)cn1)c1ccc(Cl)cc1`
inactive

And `O=C(NOCCO)c1cc(CN2OCCCC2=O)c(F)c(F)c1Nc1ccc(I)cc1F` ?
active

And `O=C(Nc1ccccc1Br)N[C@@H]1CCN(c2ccc(C(F)(F)F)cn2)C1` ?
inactive

Could you do the same for `CNC(=O)c1c(-c2ccc(F)cc2)oc2cc(N(CCO)S(C)(=O)=O)c(C3CC3)cc12` , please?
inactive

Item: `COc1cc(Nc2ncc3c(n2)-c2ccc(Cl)cc2C(c2c(F)cccc2OC)=NC3)ccc1C(=O)O`
active

Same again, this time with `NC(=O)Nc1cc(-c2ccc(CN3CCOCC3)cc2)sc1C(N)=O`
active

Here is the next compound: `CN1CCN(c2cccc(Nc3nc4c(-c5ccc(S(C)(=O)=O)cc5)cccn4n3)c2)CC1`
active

What do we get for `CN[C@H]1CCc2cc(OC)c(OC)c(OC)c2-c2ccc(OC)c(=O)cc21` ?
active

Another compound: `COc1cc(CCc2cc(NC(=O)c3ccc(N4C[C@@H](C)N[C@@H](C)C4)cc3)n[nH]2)cc(OC)c1`
active

Similarly, `Cc1c[nH]c(/C=C2\C(=O)Nc3ccccc32)c1CCC(=O)O` ?
active

Please do the same for `O=C(O)c1ccc(Nc2ncc3c(n2)-c2ccc(Cl)cc2C(c2c(F)cccc2F)=NC3)cc1` as well.
active

Proceed to `CC(C)c1cc(C(C)C)c(CC(=O)NS(=O)(=O)Oc2c(C(C)C)cccc2C(C)C)c(C(C)C)c1`
active

---

assay: growth inhibition, single agents and combos, CRL2098, cell-based, BGB or cisplatin IC20 combos, synergistic combos for chromothripsis tumors (AID 1671454); details: CRL2098 osteosarcoma cells, drug combinations, measured here: combination with BGB at IC20, at 0.5 µM, stronger effect = higher value;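 note: cells exposed for 96 h before readout; 0% = vehicle DMSO and 100% = killing by high DMSO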
Please use True whenever inhibition is not below -20%, and False whenever it is.

Answered cases to consult:
Compound	Category
C=C1[C@H](CO)[C@@H](O)C[C@@H]1n1cnc2c(=O)[nH]c(N)nc21	False
CO[C@H]1/C=C/O[C@@]2(C)Oc3c(C)c(O)c4c(O)c(c(/C=N\N5CCN(C6CCCC6)CC5)c(O)c4c3C2=O)NC(=O)/C(C)=C\C=C\[C@H](C)[C@H](O)[C@@H](C)[C@@H](O)[C@@H](C)[C@H](OC(C)=O)[C@@H]1C	False
CN(C)Cc1c(C(=O)NCCOc2ccc(C(=O)NO)cc2)oc2ccccc12	True
Nc1ncnc2c1c(-c1cnc3[nH]ccc3c1)nn2C1CCCC1	True
CN(C)C/C=C/C(=O)Nc1ccc(C(=O)Nc2cccc(Nc3ncc(Cl)c(-c4c[nH]c5ccccc45)n3)c2)cc1	True
Nc1nc(OCc2cc(Br)cs2)c2[nH]cnc2n1	False
O=C(CCCCCCNC(=O)c1cnc(N(c2ccccc2)c2ccccc2Cl)nc1)NO	False
O=C(O)CO.[NH2-].[NH2-].[Pt+2]	False

API: above_or_equal(metric=inhibition, cutoff=-20%) for item `CC(=O)[C@]1(N)Cc2c(O)c3c(c(O)c2[C@@H](O[C@H]2C[C@H](O)[C@H](O)CO2)C1)C(=O)c1ccccc1C3=O`
True

Also, `Cc1ccc2nc(NCCN)c3ncc(C)n3c2c1` please.
True

Do the same for `CN(C)c1ccc(C(=O)NCCCCCCC(=O)NO)cc1` please
False

Item: `COc1cc(C=O)c([N+](=O)[O-])cc1OC`
False

Next compound up: `O=C(COc1cccc2c(=O)[nH]ccc12)c1ccccc1`
False

Entry to check: `O=C(/C=C/c1cccc(S(=O)(=O)Nc2ccccc2)c1)NO`
False

Entry source: PubChem BioAssay
